These data points were gathered from paper PMC5454392.

- measurement-target: CaBdf1 BD1 (Candida albicans)
- Sequence (Q5A4W8 193-327): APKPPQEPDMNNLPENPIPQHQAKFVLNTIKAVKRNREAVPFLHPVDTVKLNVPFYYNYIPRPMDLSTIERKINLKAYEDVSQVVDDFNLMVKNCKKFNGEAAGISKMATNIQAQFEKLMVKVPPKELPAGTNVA
- method-notes: Isothermal titration calorimetry (ITC)
pKd: −log10 of the molar value.

# compound, pKd
measured = [
    ("CN1C(=O)c2ccccc2Sc2cc(NC(=O)C3CCCO3)ccc21 (stereo not shown) [Compound 3]", 5.32),
]

----------
- measurement-target: CaBdf1 BD1 (Candida albicans)
- Construct: made in house; host or cells: E. coli BL21(DE3)
- method-notes: HTRF assay, inhibition of BD binding to H4ac4 peptide
- Parameters: species or system C. albicans
- reported-conditions: HTRF, H4ac4 peptide; BETi, maximal concentration 10 μM; read-out: IC50 values

# compound, IC50
rows = [
    ("COc1ccccc1S(=O)(=O)Nc1ccc2c(c1)CN(C)C(=O)N2 [PFI-1, reference compound]", "> 10 µM"),
    ("COc1cc2c(cc1-c1c(C)noc1C)ncc1[nH]c(=O)n([C@H](C)c3ccccn3)c12 [IBET-151, reference compound]", "0.303 µM"),
    ("CCOC(=O)Nc1cc(-c2ccc(C)c(NS(C)(=O)=O)c2)nn2c(C)nnc12 [Bromosporine, reference compound]", "> 10 µM"),
]
